- System: BJ
- procedureText: cytotoxicity toward BJ-TERT fibroblasts, dose response, cell-based, RAS-independent, luminescence (AID 1933)
- Format: functional, Homo sapiens
- statedConditions: Homo sapiens, BJ
The source made the active and inactive calls.
measuredMetric: EC50

[
  {
    "compound": "CCOCCCNc1nc2c(C)cccn2c(=O)c1/C=C1\\SC(=S)N(C(C)CC)C1=O (stereo not given)",
    "result": "> 150 µM (not active)"
  },
  {
    "compound": "O=C(COC(=O)c1ccc2c(c1[N+](=O)[O-])C(=O)c1ccccc1C2=O)NC1CC1",
    "result": "> 150 µM (not active)"
  },
  {
    "compound": "Oc1cc(C(F)(F)F)nc2ccc(OC(F)(F)F)cc12",
    "result": "38.8 µM (active)"
  },
  {
    "compound": "CCn1c2ccccc2c2cc(NC(=O)c3cc(OC)cc(OC)c3)ccc21",
    "result": "0.431 µM (active)"
  },
  {
    "compound": "Cn1c(=O)n(C)c2cc(NC(=O)CCl)ccc21",
    "result": "18.8 µM (active)"
  }
]

* * *

EC50 overview
- Tested on: BJ
- procedureText: cytotoxicity toward BJ-TERT-LT-ST fibroblasts, dose response, cell-based, RAS-independent, luminescence (AID 1935);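 further: BJ fibroblasts immortalized with TERT plus LT and ST oncogenes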
- Format: functional, Homo sapiens
- statedConditions: Homo sapiens, BJ
The source made the active and inactive calls.
measuredMetric: EC50

[
  {
    "molecule": "O=C(O)C[C@H](O)C[C@H](O)/C=C/c1c(C2CC2)nc2ccccc2c1-c1ccc(F)cc1",
    "measuredMetric": "EC50",
    "result": "0.559 µM (active)"
  },
  {
    "molecule": "CC1CCC/C=C/C2CC(O)CC2C(O)/C=C/C(=O)O1 (centres undefined)",
    "measuredMetric": "EC50",
    "result": "< 0.12 µM (active)"
  },
  {
    "molecule": "O=C(COC(=O)c1ccc2c(c1[N+](=O)[O-])C(=O)c1ccccc1C2=O)NC1CC1",
    "measuredMetric": "EC50",
    "result": "> 150 µM (not active)"
  },
  {
    "molecule": "Cn1c(=O)n(C)c2cc(NC(=O)CCl)ccc21",
    "measuredMetric": "EC50",
    "result": "> 75 µM (inconclusive)"
  }
]

* * *

EC50 overview
- targetUnderTest: Zinc finger protein mex-5 (Caenorhabditis elegans)
- Sequence (Q9XUB2 whole entry): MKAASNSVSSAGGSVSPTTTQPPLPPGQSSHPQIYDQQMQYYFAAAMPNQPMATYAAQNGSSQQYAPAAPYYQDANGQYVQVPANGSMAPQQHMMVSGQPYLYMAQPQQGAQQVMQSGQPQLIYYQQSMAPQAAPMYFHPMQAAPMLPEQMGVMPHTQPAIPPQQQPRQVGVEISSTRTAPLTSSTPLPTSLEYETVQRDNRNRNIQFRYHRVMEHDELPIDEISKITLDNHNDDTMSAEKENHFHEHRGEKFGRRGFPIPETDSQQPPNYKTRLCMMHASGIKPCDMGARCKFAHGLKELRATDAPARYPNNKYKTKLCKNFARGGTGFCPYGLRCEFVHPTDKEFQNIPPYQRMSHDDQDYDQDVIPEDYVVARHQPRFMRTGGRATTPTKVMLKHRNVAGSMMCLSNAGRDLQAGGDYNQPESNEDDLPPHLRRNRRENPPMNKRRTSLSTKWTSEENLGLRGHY
- procedureText: MEX-5/TCR-2 RNA interaction inhibitors, dose response, biochemical, C. elegans, fluorescence polarization (AID 1960)
Active and inactive are the calls of the source.

[
  {
    "compound": "O=C(c1ccc(Br)s1)N1CCN(c2ccccn2)CC1",
    "EC50": "> 300 µM (not active)"
  },
  {
    "compound": "OC1=C2Sc3ccc(Cl)cc3N=C2CCC1",
    "EC50": "8.9 µM (inconclusive)"
  },
  {
    "compound": "CC1=C(C#N)C(=O)NC(=O)/C1=C/c1ccc(-c2ccc(S(N)(=O)=O)cc2)o1",
    "EC50": "> 300 µM (not active)"
  },
  {
    "compound": "CC(=O)Nc1ccc(N/C=C/C(=O)c2ccc(C)o2)cc1",
    "EC50": "> 300 µM (not active)"
  },
  {
    "compound": "Cc1ccccc1OCC(=O)Nc1ccc2c(c1)C(=O)c1ccccc1C2=O",
    "EC50": "> 300 µM (not active)"
  },
  {
    "compound": "CC(C)OC(=O)C(C#N)c1nc2ccccc2nc1N1CCCC1 (stereo not given)",
    "EC50": "> 300 µM (not active)"
  },
  {
    "compound": "O=C1/C(=C/c2ccc(O)c(O)c2)SC(=S)N1Nc1ccccc1",
    "EC50": "16.2 µM (active)"
  },
  {
    "compound": "O=C1NC(=O)N(Cc2ccc(F)cc2)C(=O)/C1=C/NNC(=O)c1ccccc1O",
    "EC50": "9.33 µM (active)"
  },
  {
    "compound": "CCCCC1=CC2=C(c3ccco3)C(=O)C(C)(OC(=O)c3ccc(OC)cc3)C(=O)C2=CN1C1CCCC1 (stereo not given)",
    "EC50": "14.3 µM (active)"
  },
  {
    "compound": "COc1ccccc1NC(=O)c1sc2nc(Cc3ccccc3)cc(C(F)(F)F)c2c1N",
    "EC50": "16.2 µM (active)"
  },
  {
    "compound": "COc1ccc(C2C(C#N)=C(N)OC3=C2C(=O)CC(C)(C)C3)cc1OC (stereo not given)",
    "EC50": "> 300 µM (not active)"
  },
  {
    "compound": "COc1ccc2c3c([nH]c2c1)C1CC2C(CC(O)C(OC)C2C(=O)O)CN1CC3 (stereo not given)",
    "EC50": "> 300 µM (not active)"
  },
  {
    "compound": "Cc1cc2oc(=O)c(CC(=O)NCCCO)c(C)c2c2occ(C(C)(C)C)c12",
    "EC50": "> 300 µM (not active)"
  },
  {
    "compound": "COc1cc(C(c2c(C(=O)O)[nH]c3ccccc23)c2c(C(=O)O)[nH]c3ccccc23)ccc1OCc1ccccc1",
    "EC50": "24.5 µM (active)"
  },
  {
    "compound": "Nc1c(C(=O)c2ccc(Cl)cc2)sc2nsc(SCCN3CCOCC3)c12",
    "EC50": "74.2 µM (inconclusive)"
  }
]

* * *

- targetUnderTest: Histone-lysine N-methyltransferase NSD2 (Homo sapiens, UniProt O96028)
- Sequence (O96028 whole entry): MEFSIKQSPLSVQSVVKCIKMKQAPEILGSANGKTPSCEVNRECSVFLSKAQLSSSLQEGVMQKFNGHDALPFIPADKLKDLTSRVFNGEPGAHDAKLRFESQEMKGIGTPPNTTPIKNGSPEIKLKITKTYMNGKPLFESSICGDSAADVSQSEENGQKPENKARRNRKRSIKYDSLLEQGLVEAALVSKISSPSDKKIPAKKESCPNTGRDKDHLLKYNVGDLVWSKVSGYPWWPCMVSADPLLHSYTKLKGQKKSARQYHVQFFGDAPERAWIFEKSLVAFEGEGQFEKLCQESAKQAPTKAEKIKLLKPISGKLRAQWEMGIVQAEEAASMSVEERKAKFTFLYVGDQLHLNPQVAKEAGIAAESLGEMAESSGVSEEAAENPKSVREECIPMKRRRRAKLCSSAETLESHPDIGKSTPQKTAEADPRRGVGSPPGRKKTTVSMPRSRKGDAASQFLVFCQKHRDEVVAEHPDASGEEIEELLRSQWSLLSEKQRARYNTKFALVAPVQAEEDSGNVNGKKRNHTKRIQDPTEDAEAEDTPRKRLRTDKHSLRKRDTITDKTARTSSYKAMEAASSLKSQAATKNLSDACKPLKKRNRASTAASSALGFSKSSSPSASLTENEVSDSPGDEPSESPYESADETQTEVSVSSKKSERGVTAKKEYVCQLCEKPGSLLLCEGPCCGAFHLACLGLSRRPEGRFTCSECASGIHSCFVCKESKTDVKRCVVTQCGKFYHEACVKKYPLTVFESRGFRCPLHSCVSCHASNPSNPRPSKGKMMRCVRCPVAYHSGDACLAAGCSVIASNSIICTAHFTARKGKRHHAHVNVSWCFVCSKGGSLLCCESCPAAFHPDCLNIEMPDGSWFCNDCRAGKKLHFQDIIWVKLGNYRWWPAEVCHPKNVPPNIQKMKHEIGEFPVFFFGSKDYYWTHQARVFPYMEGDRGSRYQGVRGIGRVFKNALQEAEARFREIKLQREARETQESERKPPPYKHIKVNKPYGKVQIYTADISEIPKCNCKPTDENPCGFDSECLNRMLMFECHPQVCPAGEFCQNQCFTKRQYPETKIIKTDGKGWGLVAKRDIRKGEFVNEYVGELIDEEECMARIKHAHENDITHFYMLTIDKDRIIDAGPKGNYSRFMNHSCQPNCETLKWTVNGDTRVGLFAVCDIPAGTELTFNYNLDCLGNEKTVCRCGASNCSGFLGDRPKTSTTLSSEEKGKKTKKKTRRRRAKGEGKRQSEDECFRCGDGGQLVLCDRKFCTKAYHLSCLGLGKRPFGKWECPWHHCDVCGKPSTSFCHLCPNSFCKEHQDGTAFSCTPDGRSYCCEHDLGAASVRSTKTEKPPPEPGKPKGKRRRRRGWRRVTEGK
- Assay type: biochemical
Calls of active or inactive are those of the source.
Possible outcomes: active, inactive

[
  {
    "compound": "O=C1/C(=C/c2ccc(O)c(O)c2)SC(=S)N1Nc1ccccc1",
    "targetUnderTest": "Histone-lysine N-methyltransferase NSD2 (Homo sapiens, UniProt O96028)",
    "class": "active"
  },
  {
    "compound": "Cc1ccc(NC(=O)CCCCCC2NC(=O)NC2C)cc1 (stereo not given)",
    "targetUnderTest": "Histone-lysine N-methyltransferase NSD2 (Homo sapiens, UniProt O96028)",
    "class": "active"
  },
  {
    "compound": "COc1cc(OC)c(-c2c3cc(O)c(=O)cc-3oc3cc(O)c(O)cc23)cc1OC",
    "targetUnderTest": "Histone-lysine N-methyltransferase NSD2 (Homo sapiens, UniProt O96028)",
    "class": "active"
  },
  {
    "compound": "O=C1c2cccc(Cl)c2C(=O)c2c1cccc2N1CCCC1",
    "targetUnderTest": "Histone-lysine N-methyltransferase NSD2 (Homo sapiens, UniProt O96028)",
    "class": "active"
  },
  {
    "compound": "O=[N+]([O-])c1ccc(N2CCCC2)cc1N1CCCC1",
    "targetUnderTest": "Histone-lysine N-methyltransferase NSD2 (Homo sapiens, UniProt O96028)",
    "class": "inactive"
  }
]

* * *

- procedureText: HEp-2 cell cytotoxicity, dose response, cytotoxicity control for RSV inhibitor project, HTS (AID 2410)
- Format: functional
- statedConditions: human respiratory syncytial virus
Activity calls are given as the source filed them.
CC50 overview

[
  {
    "smilesStr": "C=CC/N=C1/S/C(=C/c2cccc([N+](=O)[O-])c2)C(=O)N1CC=C",
    "CC50": "28 µM (active)"
  },
  {
    "smilesStr": "CN1C(=O)N(C)c2cccc3cccc1c23",
    "CC50": "22.5 µM (active)"
  },
  {
    "smilesStr": "O=S(=O)(c1ccccc1F)N1CCC(c2nc(O)c3nnn(Cc4ccc(F)cc4)c3n2)CC1",
    "CC50": "27 µM (active)"
  },
  {
    "smilesStr": "c1ccc(-c2ccc(C3=Nn4c(nnc4-c4cccs4)SC3)cc2)cc1",
    "CC50": "16.6 µM (active)"
  },
  {
    "smilesStr": "CCSC1=NC(/C=C/c2ccc(Cl)cc2Cl)=CC(C)(C)N1",
    "CC50": "18 µM (active)"
  },
  {
    "smilesStr": "Cn1nc(C(F)(F)F)c2cc(C(=O)Nc3ccc(Cl)cc3)sc21",
    "CC50": "21.4 µM (active)"
  }
]

* * *

- targetUnderTest: DNA dC->dU-editing enzyme APOBEC-3G (Homo sapiens);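 further: Dose-response counterscreen measuring inhibition of APOBEC3G DNA deaminase activity, run while confirming APOBEC3A inhibitors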
- Sequence (Q9HC16 whole entry): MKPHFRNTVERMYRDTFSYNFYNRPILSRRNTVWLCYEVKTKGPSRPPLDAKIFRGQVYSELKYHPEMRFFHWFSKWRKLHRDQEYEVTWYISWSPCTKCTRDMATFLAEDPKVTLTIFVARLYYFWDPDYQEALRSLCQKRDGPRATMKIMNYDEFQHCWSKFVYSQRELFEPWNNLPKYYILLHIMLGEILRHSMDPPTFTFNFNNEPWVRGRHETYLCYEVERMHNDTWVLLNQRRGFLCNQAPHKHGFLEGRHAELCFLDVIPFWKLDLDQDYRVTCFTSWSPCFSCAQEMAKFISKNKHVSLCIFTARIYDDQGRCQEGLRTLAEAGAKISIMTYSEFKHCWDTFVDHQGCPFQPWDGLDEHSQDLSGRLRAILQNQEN
- Assay type: functional
Calls of active or inactive are those of the source.

[
  {
    "compound": "C[n+]1ccccc1/C=C/c1ccc2ncccc2c1",
    "IC50": "1.92 µM (active)"
  },
  {
    "compound": "CC(C)CC1CCCCC1OC(=O)C[N+]1(C)CCCCC1 (stereo not given)",
    "IC50": "2.29 µM (active)"
  },
  {
    "compound": "Cc1ccc[n+](CC(=O)Nc2cc(C(F)(F)F)ccc2N2CCOCC2)c1",
    "IC50": "7.42 µM (active)"
  },
  {
    "compound": "COCCCn1c(Cc2csc(Nc3cccc(Cl)c3)n2)nnc1SCC(=O)OC1CCCCC1",
    "IC50": "38.8 µM (active)"
  },
  {
    "compound": "CC1=CC(C)C(C[N+]2(C)CCCCC2)C(C)C1 (stereo not given)",
    "IC50": "6.31 µM (active)"
  }
]
